B1: CPEB3 Ribozyme (parent)
chain: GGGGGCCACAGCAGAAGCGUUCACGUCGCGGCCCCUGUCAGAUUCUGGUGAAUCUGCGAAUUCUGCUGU

Variants of: B1
Test: self-cleavage, relative activity (ratio to wild type); higher = more cleavage; co-transcriptional
Assay Endpoint: self-cleavage
The response must contain the number and no unit.

I would be grateful if you could share the reported self-cleavage for A23C A59C .
0.69

I would be grateful if you could share the reported self-cleavage for G30C U49A .
0.686

I would be grateful if you could share the reported self-cleavage for C18G U67A .
0.205

I would be grateful if you could share the reported self-cleavage for U36A G65U .
0.203
